Hello, the source for this data is the array DNA melting data of Ke et al. (doi:10.1101/2024.01.08.574731), in case you need it.

assay: folding enthalpy; higher = less favourable; fluorescence melt of hairpins on a sequencing array, two-state fit; details: sodium 0.088 M
Property Measured: folding enthalpy (kJ/mol)
Expressed in kJ/mol, but write only the number.

Problem: Give folding enthalpy for GATCCGTATTCGGATC ((((((....))))))
Solution: -165

Problem: Identify folding enthalpy associated with the sequence GAGGTGGGAAACCGCCTC ((((.((....)).))))
Solution: -196

Problem: Give the measured folding enthalpy for GTCCACGAAAGTGGAGAC ((((((....)))..)))
Solution: -40.3

Problem: # return recorded folding enthalpy for input GCTAACGGAAACGTTAAC (.(((((....))))).)
Solution: -67.4

Problem: Identify the reported folding enthalpy for the following entry. GCGAACCGAAAGGTACGC (((.(((....))).)))
Solution: -191

Problem: Read off the recorded folding enthalpy for GCTGCCGAAAGGCAAGC ((((((....))).)))
Solution: -80.5

Problem: Please supply the value of reported folding enthalpy for the item GCGATAGGAAACTACCGC (((.(((....))).)))
Solution: -119

Problem: Answer with reported folding enthalpy of CGGGACCGGAAACGGCCG (((..(((....))))))
Solution: -67.2

Problem: Tell me measured folding enthalpy for GATCCATCTTGGATC ((((((...)))))) please.
Solution: -147

Problem: Indicate its recorded folding enthalpy; the sequence in question is GGAAGCCGAAAGGCTCC (((.(((....))))))
Solution: -65.5

Problem: Provide only the value of recorded folding enthalpy for GCAGGCGAAAGCCATTGC ((((((....)))..)))
Solution: -55.2

Problem: Return value of folding enthalpy for input GATCAGTGCCTGATC ((((((...)))))) , no commentary.
Solution: -94.1
